TGI values for the compounds below.
- System: SK-MEL-5 melanoma
- testName: NCI tumour cell line growth inhibition, 48 h
Give the value, in units of µM, as a plain number.

Example entries and their recorded answers appear below.
O=[N+]([O-])c1ccc(-c2nc(N(CCO)CCO)c3ccccc3n2)o1
0.244
CC1(C)NCCC[C@]2(C)[C@H]3C=CC4=C5C[C@](C)(CO)CC[C@]5(C)CC[C@@]4(C)[C@]3(C)CC[C@@H]12
4.94
C=C1C(=O)O[C@@H]2C1C[C@@H](O)/C(C)=C/C/C=C(\C)CCC[C@H](C)[C@H]2OC(C)=O (stereo not given in full)
35.5
COc1ccc(/C=C2\CN(C(=O)C(Cl)Cl)C/C(=C\c3ccc(OC)c(OC)c3)C2=O)cc1OC
0.54
CCN(CC)c1ccc(/C=c2\nc(-c3ccccc3)n3c2nc2ccccc23)cc1
21.9
COc1cc2c(cc1OC)C1=Cc3ccc(OC)c(OC)c3C(C#N)N1CC2 (stereo not given)
38.6
COc1ccc(C2=NN(C(=O)COc3ccc(Cl)cc3)C(O)(c3cc(F)c(Cl)cc3Cl)C2)cc1OC (stereo not given)
20.9
CCCc1ccc(S(=O)(=O)N[C@H]2CC[C@H]3[C@@H]4CCc5cc(O)ccc5[C@H]4CC[C@]23C)cc1
3.01

Give TGI for O=C(Nc1ccc(-n2cc(-c3ccncc3)c(-c3ccc(Cl)c(O)c3)n2)cc1)Nc1cc(C(F)(F)F)cc(C(F)(F)F)c1
3.41

Please supply the value of reported TGI for the item COc1ccc(C[C@H]2NC(=O)/C=C/C[C@@H]([C@H](C)[C@H]3O[C@@H]3c3ccccc3)OC(=O)[C@H](CC(C)C)OC(=O)[C@H](C)CNC2=O)cc1
7.06e-05

Return value of TGI for input CC1(C)OC[C@@H]([C@@]2(CO[Si](C)(C)C(C)(C)C)CC=CC(=O)O2)O1 , no commentary.
36.3

Specify reported TGI for the compound shown: COc1cc(Cl)cc(-c2nn(C(=O)NCCN3CCN(C)CC3)cc2-c2ccncc2)c1
16.7

Note down TGI recorded for COC(=O)c1ccc(CCC2=CC(=O)C(Br)=CC2=O)cc1
24.6

Provide only the value of recorded TGI for COc1ccc2c(c1)c(=O)c1c(NCCCN(C)CCCNc3ccc4c(=O)n(CCN(C)C)c(=O)n5c6ccc(OC)cc6c(=O)c3c45)ccc3c(=O)n(CCN(C)C)c(=O)n2c31
0.813

----------
Listing of entries alongside the reported TGI.
- Tested on: HCT-116 colon
- testName: NCI tumour cell line growth inhibition, 48 h

Guide cases for TGI, answers given:
FC(F)(F)c1cccc(COCCN2CCN(Cc3cccc(C(F)(F)F)c3)CC2)c1
34.9 µM
O=C(O)CCC(C(=O)O)N1C(=O)c2ccccc2C1=O (configuration not stated)
> 100 µM
O=C(CNC(=O)OCc1ccccc1)Oc1ccccc1
> 100 µM

Provide one value: measured TGI of CC(C)(C)OC(=O)NC1CCCC1C(O)(C1=CCCC1)C1=CCCC1 (configuration not stated)
> 100 µM

Output TGI of Cc1ccc2ccc(=O)oc2c1
> 100 µM

Provide only the value of recorded TGI for O=C1c2n[nH]nc2C(=O)c2n[nH]nc21
> 100 µM

Indicate its recorded TGI; the compound in question is NNC(=O)Cc1cccnc1
> 100 µM

Quote TGI reported for Cc1cccc(C)c1NC(=O)/C(Cl)=C(/Cl)C(=O)O please.
36.4 µM

Dear colleague, please send me the reported TGI for CCOc1cc2c(cnc3c4cc(OC)c(OC)cc4ccc23)cc1OC when you can.
> 100 µM

Read the entry CCSCC(=O)N1CCc2c([nH]c3ccccc23)C1=O and write its reported TGI.
> 100 µM

Please give measured TGI of the following entry: N#CC1=C(N)NC(=S)NC12Nc1ccccc1O2 (configuration not stated)
85.2 µM

Determine its reported TGI: C=CC[C@H]1C[C@@]2(C)OC[C@H](C(C)C)N2C1=O
> 100 µM
